details: 388.15 K; 101.33 kPa; Liquid; Alternating current cell with electrodes
electrical conductivity values, listed per item
Quick reminder: number only, in S/m, skip the unit.

Example compounds with recorded electrical conductivity:
compound	numeric_value
CCCC[n+]1ccccc1.O=S(=O)([N-]S(=O)(=O)C(F)(F)F)C(F)(F)F [1-butylpyridinium bis[(trifluoromethyl)sulfonyl]imide]	2.94
CCCC[N+]1(C)CCCC1.N#CN=C=[N-] [1-butyl-1-methylpyrrolidinium dicyanamide]	6.93

What value of electrical conductivity has been recorded for this entry: CCCCCCCC[N+](C)(CCCCCCCC)CCCCCCCC.O=C([O-])C(F)(F)F [methyltrioctylammonium trifluoroacetate] 0.125

Given the entry CC[S+](CC)CC.O=S(=O)([N-]S(=O)(=O)C(F)(F)F)C(F)(F)F [triethylsulfonium bis((trifluoromethyl)sulfonyl)imide] , report its measured electrical conductivity. 4.43

Which electrical conductivity reading was recorded for the compound CC[S+](C)CC.O=S(=O)([N-]S(=O)(=O)C(F)(F)F)C(F)(F)F [diethylmethylsulfonium bis[(trifluoromethyl)sulfonyl]imide] ? 4.43
